Field: Papp B→A. Provide a value for each of the compounds that follow.
Test: in vitro
Conditions: human, Caco-2
Give bare numbers, in ×10⁻⁶ cm/s.

Example cases with answers are listed next.
>  <Compound>
CC(C)(C)CCC1(C(=O)c2ccc3[nH]ncc3c2)CCCN1 (stereo unspecified)

>  <Unit string>
×10⁻⁶ cm/s

>  <Papp B→A>
12

$$$$
>  <Compound>
CC(C)OCC1(C(=O)c2ccc(N)c(Cl)c2)CCCN1 (single isomer, unassigned; (+))

>  <Unit string>
×10⁻⁶ cm/s

>  <Papp B→A>
18

$$$$
>  <Compound>
CC(C)CC1(C(=O)c2ccc3[nH]ncc3c2)CCCN1 (stereo unspecified)

>  <Unit string>
×10⁻⁶ cm/s

>  <Papp B→A>
20

$$$$
>  <Compound>
O=C(c1ccc2[nH]ccc2c1)C1(Cc2ccccc2)CCNC1 (stereo unspecified)

>  <Unit string>
×10⁻⁶ cm/s

>  <Papp B→A>
19

$$$$
>  <Compound>
CCCC1(C(=O)c2ccc3[nH]ccc3c2)CCCN1 (stereo unspecified)

>  <Unit string>
×10⁻⁶ cm/s

>  <Papp B→A>
10

$$$$

Now consider a different compound.
Req: For the compound shown here, CCCC1(C(=O)c2ccc3[nH]ncc3c2)CCCN1 (stereo unspecified) , give the reported Papp B→A.
Resp: 16

The reported numbers originate from ChEMBL document CHEMBL1221322.
